Reference source for all entries: patent US20220281846A1

- Experiment Description: Mouse pharmacokinetics, IV and oral administration
- Format: in vivo
- Condition Context: male, C57BL/6, mouse, plasma, po, 8.96 mg/kg, male C57BL/6 mice, oral 8.96 mg/kg, 2.0 h; read-out: Plasma Concentration, Individual
Measured Endpoint: concentration at 2 h (µM)
Numbers only here, please. The scale is µM.

Reported concentration at 2 h, compound Nc1nccc(-c2c(-c3ccc(F)cc3)ncn2C2CCC(F)(F)CC2)n1 : ____
13.8
